Target: OsWOX13 (Oryza sativa, UniProt Q5QMM3 1-267)
Sequence: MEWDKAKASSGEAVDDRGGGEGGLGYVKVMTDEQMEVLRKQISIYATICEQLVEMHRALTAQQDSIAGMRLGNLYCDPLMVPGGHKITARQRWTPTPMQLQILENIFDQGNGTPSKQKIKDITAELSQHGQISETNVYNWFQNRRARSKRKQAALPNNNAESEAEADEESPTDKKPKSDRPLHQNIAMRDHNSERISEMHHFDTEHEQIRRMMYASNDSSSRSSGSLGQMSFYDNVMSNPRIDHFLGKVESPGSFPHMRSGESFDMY
Assay: protein-binding microarray (RPBM); PBS, 2% BSA, 51.3 ng/ul salmon testes DNA, 50 uM zinc acetate, 200 nM TF, 25 C, 1 h; high values mean tight binding
Conditions: protein: recombinant; tags: N-terminal polyhistidine and DsRed monomer fusion (pET32a); label: CyDye5-dUTP incorporated in the synthesized complementary strand; 3' TTTTT single-stranded linker to array surface; dsDNA, one strand shown
In all, about 35,000 sequences were measured (“fluorescence intensity (a.u.)”: median about 10,000, highest 2% from about 52,000 on). This is one part of a sample in which the highest values are shown more often than they occur.
observed.property: binding signal

> print(dat)
                            record.sequence  observed.property                      measured.result
1  TCTTGCCAACTGATTGATCGATCCTGGAAGCTTGCTGCTGCGGAGTCACCTAGTGCAG     binding signal  37900 fluorescence intensity (a.u.)
2  CTAGATGATTGGCTATCATCACCTGTTCACAATCTTATGTCGGAGTCACCTAGTGCAG     binding signal  61900 fluorescence intensity (a.u.)
3  TGTTTGATTATGTTCAATCATTGCAAATCATGTCATCTGTCGGAGTCACCTAGTGCAG     binding signal  45900 fluorescence intensity (a.u.)
4  TGTCCACTGAAATTGATTGGAGATCGATGTGATGGTCAAGCGGAGTCACCTAGTGCAG     binding signal  40200 fluorescence intensity (a.u.)
5  TGTTGACAAAATTAGCTGTTGCAACGCATACAGACTTCAACGGAGTCACCTAGTGCAG     binding signal   7410 fluorescence intensity (a.u.)
6  TTATAATTAGAACTTTTATATGTGTGTTATGCACGACTTACGGAGTCACCTAGTGCAG     binding signal   4050 fluorescence intensity (a.u.)
7  TATTAAACGAATTATCACAAAATTATAGATTTATCATGTTCGGAGTCACCTAGTGCAG     binding signal   3760 fluorescence intensity (a.u.)
8  ATTCTTAAATTGTTTTAACTAATACTTAATCAGCCATGAACGGAGTCACCTAGTGCAG     binding signal   7790 fluorescence intensity (a.u.)
9  GACGCCGTCAGCAATGATTGCCTTGCTAGCAGCTGCTTGACGGAGTCACCTAGTGCAG     binding signal   4390 fluorescence intensity (a.u.)
